Biological target: PAK4 (human)
Test: radiometric filter-binding kinase assay, Kinase HotSpot
Settings: compound 0.5 µM; ATP 10 µM
Please go through the items and note down their residual activity.
Give bare numbers, in %.

entry-smiles | study-target | readout-units | residual activity
Fc1ccc(-c2nc3n(c2-c2ccncc2)CCS3)cc1 | PAK4 (human) | % | 99.1
CN(C)CCCn1cc(C2=C(c3c[nH]c4ccccc34)C(=O)NC2=O)c2ccccc21 | PAK4 (human) | % | 93.6
Cn1c2ccccc2c2c3c(c4c5ccccc5n(CCC#N)c4c21)CNC3=O | PAK4 (human) | % | 44

# map each molecule to its residual activity
1. Cc1cncc2cccc(S(=O)(=O)N3CCCN(C(=O)CN)C[C@H]3C)c12
2. N#Cc1c[nH]c2c[nH]/c(=N\Cc3cccnc3)cc2/c1=N\c1ccc(F)c(Cl)c1
3. CS(=O)(=O)CCNCc1ccc(-c2ccc3ncnc(Nc4ccc(OCc5cccc(F)c5)c(Cl)c4)c3c2)o1
4. O=C1Nc2ccc(Br)cc2/C1=C\c1cc2c([nH]1)CCCC2

99.5
85.4
89.9
76.8

----------
Molecular target: DAPK3 (human)
Experiment: radiometric filter-binding kinase assay, Kinase HotSpot
Settings: compound 0.5 µM; ATP 10 µM
Please go through the items and note down their residual activity.
Answers are plain numbers, in %.

entry-smiles | observable | val
Cc1cccc(-c2nc(C(C)(C)C)[nH]c2-c2ccc3c(c2)OCO3)n1 | residual activity | 97
Fc1ccc(-c2nc3n(c2-c2ccncc2)CCS3)cc1 | residual activity | 100
N#C/C(=C\c1ccc(O)c(O)c1)C(=O)NCc1ccccc1 | residual activity | 86.5
COc1ccc2c(c1)c(C1=C(c3c[nH]c4ccccc34)C(=O)NC1=O)cn2CCCN(C)C | residual activity | 75.5

Please examine the following record next.
Record C[C@@H]1CCN(C(=O)CC#N)C[C@@H]1N(C)c1ncnc2[nH]ccc12 ; system DAPK3 (human); residual activity = 106

----------
Biological target: DMPK (human)
Experiment: radiometric filter-binding kinase assay, Kinase HotSpot
Details: compound 0.5 µM; ATP 10 µM
observable: residual activity (%)
Answers are plain numbers, in %.

# map each compound to its residual activity
1. Ic1cccc(CSc2nnc(-c3ccncc3)o2)c1
2. N#C/C(=C\c1ccc(O)c(O)c1)C(=O)NCc1ccccc1

105
99.7

# map each compound to its residual activity
1. CO[C@@H]1[C@H](N(C)C(=O)c2ccccc2)C[C@H]2O[C@]1(C)n1c3ccccc3c3c4c(c5c6ccccc6n2c5c31)C(=O)NC4
2. NC(=O)c1cccc(-c2cc(Nc3ccc(OC(F)(F)F)cc3)ncn2)c1
3. COc1cc2ncnc(Nc3ccc(Oc4ccccc4)cc3)c2cc1OC

112
96.1
106

----------
Molecular target: STK24 (human) (UniProt Q9Y6E0)
Sequence (Q9Y6E0 whole entry, looked up): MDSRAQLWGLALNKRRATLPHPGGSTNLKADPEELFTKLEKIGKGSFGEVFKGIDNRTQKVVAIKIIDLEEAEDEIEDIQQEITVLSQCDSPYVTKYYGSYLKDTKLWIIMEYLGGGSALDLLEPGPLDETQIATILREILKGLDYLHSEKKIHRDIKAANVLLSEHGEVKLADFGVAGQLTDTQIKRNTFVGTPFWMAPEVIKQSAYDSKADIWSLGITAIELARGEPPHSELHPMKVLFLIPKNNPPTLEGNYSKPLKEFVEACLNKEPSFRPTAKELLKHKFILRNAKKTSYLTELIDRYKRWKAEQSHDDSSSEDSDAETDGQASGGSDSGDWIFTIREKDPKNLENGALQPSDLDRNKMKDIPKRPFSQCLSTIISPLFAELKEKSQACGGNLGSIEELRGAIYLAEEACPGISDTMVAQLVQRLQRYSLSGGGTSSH
Experiment: radiometric filter-binding kinase assay, Kinase HotSpot
Conditions: compound 0.5 µM; ATP 10 µM
observable: residual activity (%)
Answers are plain numbers, in %.

Worked examples, 2 molecules total:
entry-smiles | residual activity (%)
O=C1C(Cl)=C(N2C(=O)CCC2=O)C(=O)c2ccccc21 | 87
COc1cc(Nc2c(C#N)cnc3cc(OCCCN4CCN(C)CC4)c(OC)cc23)c(Cl)cc1Cl | 11

# map each molecule to its residual activity
1. COc1ccc(C(=O)Nc2sc3c(c2C(N)=O)CCCC3)cc1OC
2. CS(=O)(=O)CCNCc1ccc(-c2ccc3ncnc(Nc4ccc(OCc5cccc(F)c5)c(Cl)c4)c3c2)o1
3. Fc1ccc(-c2nc3n(c2-c2ccncc2)CCS3)cc1
4. O=C1c2ccccc2-c2nc3nnnn3nc21
5. O=C1Nc2ccc(Br)cc2/C1=C\c1cc2c([nH]1)CCCC2
6. CO[C@@H]1[C@H](N(C)C(=O)c2ccccc2)C[C@H]2O[C@]1(C)n1c3ccccc3c3c4c(c5c6ccccc6n2c5c31)C(=O)NC4

[93.9, 106, 94.2, 101, 94.2, 39.1]

# map each molecule to its residual activity
1. Cc1cccc(-c2nc(C(C)(C)C)[nH]c2-c2ccc3c(c2)OCO3)n1
2. c1ccc2c(-c3ccncc3)c[nH]c2c1

1: 100; 2: 93.5

----------
Target: FLT1 (human) (UniProt P17948)
Sequence (P17948 whole entry, looked up): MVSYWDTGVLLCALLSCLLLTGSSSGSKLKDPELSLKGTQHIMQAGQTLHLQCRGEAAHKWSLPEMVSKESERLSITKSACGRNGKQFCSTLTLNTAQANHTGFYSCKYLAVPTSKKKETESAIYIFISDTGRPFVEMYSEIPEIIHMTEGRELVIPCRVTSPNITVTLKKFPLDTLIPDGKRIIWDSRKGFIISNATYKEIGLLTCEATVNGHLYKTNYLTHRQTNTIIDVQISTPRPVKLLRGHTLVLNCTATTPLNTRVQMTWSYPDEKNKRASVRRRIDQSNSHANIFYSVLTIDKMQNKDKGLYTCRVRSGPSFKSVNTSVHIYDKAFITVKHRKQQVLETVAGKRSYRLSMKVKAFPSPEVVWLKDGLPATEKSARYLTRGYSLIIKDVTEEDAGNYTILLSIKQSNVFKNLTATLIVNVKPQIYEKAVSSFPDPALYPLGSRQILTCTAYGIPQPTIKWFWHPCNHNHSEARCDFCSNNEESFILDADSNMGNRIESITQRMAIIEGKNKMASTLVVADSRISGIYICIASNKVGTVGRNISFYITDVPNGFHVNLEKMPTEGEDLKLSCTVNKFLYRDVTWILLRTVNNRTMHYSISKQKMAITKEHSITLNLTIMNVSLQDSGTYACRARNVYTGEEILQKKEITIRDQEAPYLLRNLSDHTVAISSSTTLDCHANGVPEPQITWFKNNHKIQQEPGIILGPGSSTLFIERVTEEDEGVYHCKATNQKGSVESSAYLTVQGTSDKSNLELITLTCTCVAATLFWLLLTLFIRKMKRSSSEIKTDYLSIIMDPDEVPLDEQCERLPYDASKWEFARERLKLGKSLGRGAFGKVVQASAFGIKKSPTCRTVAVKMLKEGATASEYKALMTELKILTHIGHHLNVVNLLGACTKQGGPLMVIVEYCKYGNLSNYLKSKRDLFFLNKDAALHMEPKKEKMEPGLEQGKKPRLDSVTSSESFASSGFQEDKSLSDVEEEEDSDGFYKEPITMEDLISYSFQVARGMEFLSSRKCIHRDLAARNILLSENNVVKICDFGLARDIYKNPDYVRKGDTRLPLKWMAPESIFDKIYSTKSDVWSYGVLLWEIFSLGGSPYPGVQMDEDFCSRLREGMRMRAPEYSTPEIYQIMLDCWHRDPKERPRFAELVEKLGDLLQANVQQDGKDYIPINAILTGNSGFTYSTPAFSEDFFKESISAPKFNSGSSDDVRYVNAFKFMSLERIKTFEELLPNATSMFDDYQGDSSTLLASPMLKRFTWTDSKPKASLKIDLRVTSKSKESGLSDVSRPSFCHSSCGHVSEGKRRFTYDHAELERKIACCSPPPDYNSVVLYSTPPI
Assay: radiometric filter-binding kinase assay, Kinase HotSpot
Details: compound 0.5 µM; ATP 10 µM
observable: residual activity
Returns: string containing the number followed by the unit.

entry-smiles | residual activity
COc1cc2ncnc(Nc3ccc(OCc4ccccc4)cc3)c2cc1OC | 96%

# map each compound to its residual activity
1. Cn1c2ccccc2c2c3c(c4c5ccccc5n(CCC#N)c4c21)CNC3=O
2. COc1ccc2c(c1)c(C1=C(c3c[nH]c4ccccc34)C(=O)NC1=O)cn2CCCN(C)C
3. COc1cc(Nc2c(C#N)cnc3cc(OCCCN4CCN(C)CC4)c(OC)cc23)c(Cl)cc1Cl
4. CC(C)(C)c1cc(C=C(C#N)C#N)cc(Br)c1O

["63.6%", "22%", "44.5%", "92.5%"]

----------
Target: IKBKB (human) (UniProt O14920)
Sequence (O14920 whole entry, looked up): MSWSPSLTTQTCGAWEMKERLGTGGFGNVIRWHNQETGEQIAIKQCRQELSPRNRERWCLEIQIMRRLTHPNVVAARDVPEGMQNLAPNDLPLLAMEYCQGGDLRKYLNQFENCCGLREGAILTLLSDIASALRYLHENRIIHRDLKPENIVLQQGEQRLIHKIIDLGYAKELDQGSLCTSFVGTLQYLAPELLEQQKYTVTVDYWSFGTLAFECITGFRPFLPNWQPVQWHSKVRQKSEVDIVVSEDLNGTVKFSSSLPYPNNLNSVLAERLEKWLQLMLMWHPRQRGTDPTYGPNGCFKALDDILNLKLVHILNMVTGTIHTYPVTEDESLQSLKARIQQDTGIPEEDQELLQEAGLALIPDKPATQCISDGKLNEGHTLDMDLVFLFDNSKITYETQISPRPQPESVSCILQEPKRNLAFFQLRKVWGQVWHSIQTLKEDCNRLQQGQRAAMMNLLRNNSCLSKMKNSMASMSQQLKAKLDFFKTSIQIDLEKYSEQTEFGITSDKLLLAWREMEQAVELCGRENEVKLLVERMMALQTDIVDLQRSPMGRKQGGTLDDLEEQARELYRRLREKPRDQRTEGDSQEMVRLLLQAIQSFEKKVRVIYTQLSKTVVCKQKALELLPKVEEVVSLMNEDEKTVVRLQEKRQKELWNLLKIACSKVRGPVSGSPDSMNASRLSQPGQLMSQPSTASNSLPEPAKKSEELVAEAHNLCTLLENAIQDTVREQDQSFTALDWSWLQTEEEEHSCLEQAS
Test: radiometric filter-binding kinase assay, Kinase HotSpot
Conditions: compound 0.5 µM; ATP 10 µM
observable: residual activity (%)
Give bare numbers, in %.

Worked examples, 6 molecules total:
entry-smiles | observable | val
CN(C)c1ccc(/C=C2\C(=O)Nc3ccccc32)cc1 | residual activity | 105
COc1cc(Nc2c(C#N)cnc3cc(OCCCN4CCN(C)CC4)c(OC)cc23)c(Cl)cc1Cl | residual activity | 95.4
COc1ccc(C(=O)Nc2sc3c(c2C(N)=O)CCCC3)cc1OC | residual activity | 87.6
CN(C)S(=O)(=O)c1ccc2c(c1)/C(=C/c1cc3c([nH]1)CCCC3)C(=O)N2 | residual activity | 107
COc1cc2ncnc(Nc3ccc(Oc4ccccc4)cc3)c2cc1OC | residual activity | 106
Cc1cncc2cccc(S(=O)(=O)N3CCCN(C(=O)CN)C[C@H]3C)c12 | residual activity | 109

# map each molecule to its residual activity
1. Ic1cccc(CSc2nnc(-c3ccncc3)o2)c1
2. Cc1cccc(-c2nc(C(C)(C)C)[nH]c2-c2ccc3c(c2)OCO3)n1
3. O=C1Nc2ccc(Br)cc2/C1=C\c1cc2c([nH]1)CCCC2

[89.3, 105, 102]

----------
Biological target: SGK3 (human)
Test: radiometric filter-binding kinase assay, Kinase HotSpot
Details: compound 0.5 µM; ATP 10 µM
observable: residual activity (%)
Answers are plain numbers, in %.

Worked examples, 9 compounds total:
entry-smiles | observable | val
C[C@@H]1CCN(C(=O)CC#N)C[C@@H]1N(C)c1ncnc2[nH]ccc12 | residual activity | 98.1
Cc1nc(-c2ccccc2)c(-c2ccncc2)o1 | residual activity | 96.4
O=C1Nc2ccc(Br)cc2/C1=C\c1cc2c([nH]1)CCCC2 | residual activity | 97.6
COc1cc2ncnc(Nc3ccc(OCc4ccccc4)cc3)c2cc1OC | residual activity | 105
N#C/C(=C\c1ccc(O)c(O)c1)C(=O)NCc1ccccc1 | residual activity | 102
CN(C)CCCn1cc(C2=C(c3c[nH]c4ccccc34)C(=O)NC2=O)c2ccccc21 | residual activity | 72.8
COc1cc2ncnc(Nc3ccc(Oc4ccccc4)cc3)c2cc1OC | residual activity | 101
COc1cc(Nc2c(C#N)cnc3cc(OCCCN4CCN(C)CC4)c(OC)cc23)c(Cl)cc1Cl | residual activity | 94.4
O=C1c2ccccc2-c2nc3nnnn3nc21 | residual activity | 90.4

Please examine the following record next.
Documented residual activity of Cc1cccc(-c2nc(C(C)(C)C)[nH]c2-c2ccc3c(c2)OCO3)n1 : 98

----------
Molecular target: PRKX (human)
Assay: radiometric filter-binding kinase assay, Kinase HotSpot
Details: compound 0.5 µM; ATP 10 µM
observable: residual activity (%)
One number for each entry, in %.

Worked examples, 5 compounds total:
entry-smiles | study-target | readout-units | residual activity
COc1ccc(Cl)cc1NC(=O)Nc1cc(C)nc2ccccc12 | PRKX (human) | % | 98
c1ccc2c(-c3ccncc3)c[nH]c2c1 | PRKX (human) | % | 54.3
Cc1nc(-c2ccccc2)c(-c2ccncc2)o1 | PRKX (human) | % | 101
COc1cc(Nc2c(C#N)cnc3cc(OCCCN4CCN(C)CC4)c(OC)cc23)c(Cl)cc1Cl | PRKX (human) | % | 110
Cc1cccc(-c2nc(C(C)(C)C)[nH]c2-c2ccc3c(c2)OCO3)n1 | PRKX (human) | % | 95

# map each compound to its residual activity
1. O=C1C(Cl)=C(N2C(=O)CCC2=O)C(=O)c2ccccc21
2. O=C1Nc2ccc(Br)cc2/C1=C\c1cc2c([nH]1)CCCC2
3. COc1ccc2c(c1)c(C1=C(c3c[nH]c4ccccc34)C(=O)NC1=O)cn2CCCN(C)C
4. N#Cc1c[nH]c2c[nH]/c(=N\Cc3cccnc3)cc2/c1=N\c1ccc(F)c(Cl)c1
5. O=C1NC(=O)c2c1c1c3ccccc3[nH]c1n1cncc21
6. COc1cc2ncnc(Nc3ccc(OCc4ccccc4)cc3)c2cc1OC
7. NC(=O)c1cccc(-c2cc(Nc3ccc(OC(F)(F)F)cc3)ncn2)c1
8. COc1ccc2c(c1)/C(=C/c1cnc[nH]1)C(O)=N2

[103, 97.2, 102, 101, 87.8, 105, 105, 87.9]

# map each compound to its residual activity
1. CCCCc1c(-c2ccc(OC)cc2)[nH]c2nccnc12
2. COc1ccc(S(=O)(=O)N(CCO)c2ccccc2CN(C)C/C=C/c2ccc(Cl)cc2)cc1
3. O=C(c1cc2cc(O)ccc2[nH]1)c1cc2cc(O)ccc2[nH]1
4. CS(=O)(=O)CCNCc1ccc(-c2ccc3ncnc(Nc4ccc(OCc5cccc(F)c5)c(Cl)c4)c3c2)o1

[102, 104, 94.5, 111]

# map each compound to its residual activity
1. Cn1c2ccccc2c2c3c(c4c5ccccc5n(CCC#N)c4c21)CNC3=O
2. O=C1c2ccccc2-c2nc3nnnn3nc21

1: 60.1; 2: 94.3

Documented residual activity of CN(C)CCCn1cc(C2=C(c3c[nH]c4ccccc34)C(=O)NC2=O)c2ccccc21 : 85.3

Cited source for all entries: the kinase profiling compilation of Christmann-Franck et al. (2016)
